Experiment: AUClast in C57BL/6 mouse at 2 mg/kg, iv measured at 24 hrs by LC-MS/MS analysis
Assay type: ADME, organism-based
Parameters: time 24 hrs, dose 2 mg/kg, route iv
Settings: in vivo
measurement type: AUC(0-t) at 24 h
The reply must contain the numeric value and, after it, the unit.

Note to self: AUC(0-t) at 24 h recorded for `Cc1c(C#N)cccc1-c1cc(-c2ccn(Cc3cccc(C(C)(C)O)c3)c(=O)c2)nc(N)n1` was 5580 ng·h/mL
